# Assay overview: MTT cytotoxicity assay
# Format: cell-based, human
# Experimental parameters: human, HEK293 cells
Attribute measured: viability at 24 h, 100 µM

// query I am curious: what viability at 24 h, 100 µM value has been reported for Cc1ccccc1C(=O)/C=C/c1cn(Cc2cn(-c3ccnc4cc(Cl)ccc34)nn2)c2ccccc12 [7r] ?
// result > 90%

---

# Assay overview: MTT cytotoxicity assay
# Format: cell-based, human
# Experimental parameters: human, HepG2 cells
Attribute measured: viability at 24 h, 100 µM

// query I am curious: what viability at 24 h, 100 µM value has been reported for Cc1ccccc1C(=O)/C=C/c1cn(Cc2cn(-c3ccnc4cc(Cl)ccc34)nn2)c2ccccc12 [7r] ?
// result > 90%

The measurements presented in this section are drawn from paper PMC10847618.
